# test.summary: amyloid nucleation score (Sup35N fusion, yeast selection) (log enrichment); library NNK2; higher = more nucleation; inactive = no reads after selection;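 also: zero at mode of non-aggregating sequences after 7 days selection at 30°C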
observed.property: amyloid nucleation score

sequence_input=CFPSILSRFINLRCPGRSSY observed_property="amyloid nucleation score" result=inactive
sequence_input=IDNEMYFAHGIRGDSLL observed_property="amyloid nucleation score" result=inactive
sequence_input=IPVYVAVIVG observed_property="amyloid nucleation score" result=inactive

---

# test.summary: amyloid nucleation score (Sup35N fusion, yeast selection) (log enrichment); library NNK1; higher = more nucleation; inactive = no reads after selection
# binarize amyloid nucleation score: threshold 0.4 inclusive, high side true, low side false

sequence_input=NTGRISYFFVVSNPSPYSLR class=true
sequence_input=IVHMIYWVM class=false
sequence_input=LSDWYNLRRWRTVTWAQQLH class=false
sequence_input=WLSMANHLIISCGSCRFRAF class=true

Next:
Say whether ERITIFVSVRTGKLRYLWPT shows amyloid nucleation score of 0.4 or more. false

---

# test.summary: amyloid nucleation score (Sup35N fusion, yeast selection) (log enrichment); library NNK1; higher = more nucleation; inactive = no reads after selection
Could you please report measured amyloid nucleation score for the items listed next?
Answers are plain numbers.

substance=FLLMVWDIYECVGNTLKRCA observed_property="amyloid nucleation score" numeric_result=0.027
substance=TAVDLWYGGVGGLALNGVVS observed_property="amyloid nucleation score" numeric_result=0.594
substance=QFLLLPGNHHRFRSRHIRTL observed_property="amyloid nucleation score" numeric_result=-0.255

Please report amyloid nucleation score for every entry that follows.
1. NPFWWVRPL
2. RLVCKFRMRKSNRGVRNMLC
3. SLLYSITNVCTLRGRMCCLA

1. 0.284
2. 0.797
3. 0.116

---

# test.summary: amyloid nucleation score (Sup35N fusion, yeast selection) (log enrichment); library NNK2; higher = more nucleation; inactive = no reads after selection
observed.property: amyloid nucleation score

Answered examples (5):
sequence_input=NLYAPGSIYSASFFRVMTLG result=-1.04
sequence_input=SYNDWGFMKVGCL result=-0.686
sequence_input=PTGCLMICNSFVIDSVRRRP result=7.81
sequence_input=LGFLAEELCMSMMGIVDVPE result=inactive
sequence_input=TSNRTTNSLLMCDKLRNTSV result=-0.345

Please report amyloid nucleation score for every entry that follows.
1. SARIGISRFCPHAVSPVITK
2. DSPQHHECIMVWL
3. QFDAWAYMDRTPHGDSYRAA

["inactive", 4.38, 0.237]

---

# test.summary: amyloid nucleation score (Sup35N fusion, yeast selection) (log enrichment); library NNK3; higher = more nucleation; inactive = no reads after selection
observed.property: amyloid nucleation score

substance=LRRSVSIGDPGASLIKTSFA result=inactive
substance=YRWGRVYPSAFSLCKLRYKL result=inactive
substance=KEVTSLVLIVFT result=0.58
substance=VLARLQLHFCSMTSDRYGLM result=1.04
substance=VVLTMMHRHLYVSCKLRFCS result=inactive

Please report amyloid nucleation score for every entry that follows.
1. CTTRMCNGLWNARLRGTTSP
2. SPPTGYRASNWRGLGSVDGW
3. IELVFAHVYCGMRWNSEASR

1: inactive; 2: inactive; 3: 1.4

Please report amyloid nucleation score for every entry that follows.
1. EKMAADQSS
2. NFIALSLFKLVCSAEICWLN
3. YHLYDETMCMP
4. NRTQRISWIWVLTPSDVLVS
5. LLFFLAGVSSHIMYLVYARC
6. SSSQTISQGDSGHLHYKVWS
7. ETFFIYDVALQ
8. VGQFVRGLVKLCNGMYYWWL

inactive
0.617
inactive
inactive
inactive
inactive
inactive
inactive

Please report amyloid nucleation score for every entry that follows.
1. VCGIVIRGKVPKDKQYNMGE
2. CYQVWPARLSILHARLLGGR
3. TTGLISSNGVTG
4. WYRLRYSQST
5. DQAYWKQCSMSIWYGFRRLV
6. VGCRMPVACRTWRDKYALAR

inactive
inactive
inactive
inactive
inactive
inactive

Please report amyloid nucleation score for every entry that follows.
1. FLPRLSNIWPNFDSSEQLRY
2. TNFSRYEDFVLLFCPILYAF

1. inactive
2. inactive

---

# test.summary: amyloid nucleation score (Sup35N fusion, yeast selection) (log enrichment); library NNK1; higher = more nucleation; inactive = no reads after selection
# binarize amyloid nucleation score: threshold -0.3 inclusive, high side rule met, low side rule not met

// known answers, use as guide
sequence_input=YFIPEFSTCVMWRSNNTGKY class="rule met"
sequence_input=PYIVKVCGCDPLVHLFI class="rule met"
sequence_input=GWMVRMLEHYHPAV class="rule met"
sequence_input=LVFSRFLGSVLVNEPSEATR class="rule met"
sequence_input=TGLELGVPKIRCMSFHVLPW class="rule not met"
sequence_input=VTNFNESLGKFSRNTLLRS class="rule not met"

Say whether HCRKYTKTSR shows amyloid nucleation score of -0.3 or more. rule not met

---

# test.summary: amyloid nucleation score (Sup35N fusion, yeast selection) (log enrichment); library NNK2; higher = more nucleation; inactive = no reads after selection
observed.property: amyloid nucleation score

substance=STGSNFDESSKQCFAFICKK observed_property="amyloid nucleation score" result=inactive
substance=VRVGVWSMTFG observed_property="amyloid nucleation score" result=-0.52
substance=DMNLRLSEWVDFCSIGLFVK observed_property="amyloid nucleation score" result=-0.272
substance=TTCDNEREGTLKYVNVCCNL observed_property="amyloid nucleation score" result=5.42
substance=IRCVGRVVFCCNFS observed_property="amyloid nucleation score" result=9.96
substance=RDSQWGLSRKDFSHACVLTY observed_property="amyloid nucleation score" result=-0.408
substance=RMFRFRRHSKHLEKLSSRFL observed_property="amyloid nucleation score" result=-0.222
substance=LLNSCSTVESWCNLGEMDKY observed_property="amyloid nucleation score" result=0.122
substance=SYMFDSEVQVRTDFLLFCYI observed_property="amyloid nucleation score" result=0.346
substance=LKGGIFRV observed_property="amyloid nucleation score" result=inactive

Please report amyloid nucleation score for every entry that follows.
1. RFNMMKSKQMELSN
2. DTERRC

-0.504
-1.06

---

# test.summary: amyloid nucleation score (Sup35N fusion, yeast selection) (log enrichment); library NNK1; higher = more nucleation; inactive = no reads after selection
# binarize amyloid nucleation score: threshold 0.4 inclusive, high side t, low side f

// known answers, use as guide
substance=NIGMRDTGVLLDKLCQV class=f
substance=LGIYNGEASRWYRESTPAQ class=f
substance=LSLDRNVATHKGSYPEWDNF class=t
substance=YVRFYLFNFVGLRQKFMI class=t
substance=SVGTDY class=f

Say whether VLPCSGQA shows amyloid nucleation score of 0.4 or more. t

Say whether TSVLLQHGLWIGS shows amyloid nucleation score of 0.4 or more. t

Say whether WVVLFLLWNGWVDWHIRTEQ shows amyloid nucleation score of 0.4 or more. f

Say whether VPFLYVG shows amyloid nucleation score of 0.4 or more. f

---

# test.summary: amyloid nucleation score (Sup35N fusion, yeast selection) (log enrichment); library NNK1; higher = more nucleation; inactive = no reads after selection
observed.property: amyloid nucleation score
Give bare numbers.

Answered examples (3):
substance=WVGLSFDDIKIYSASSN numeric_result=0.308
substance=FKRCKRIPDPQSIGSRHFGA numeric_result=0.568
substance=SPRRLGAVMVSRRVGVGKGW numeric_result=0.402

Please report amyloid nucleation score for every entry that follows.
1. FQARHIFHVFLVSSSRVRLT
2. MTYDGCNSCKHLKSGKLRWC
3. QYHYNGGLPRQFK

[1.65, 0.117, -0.534]

---

# test.summary: amyloid nucleation score (Sup35N fusion, yeast selection) (log enrichment); library NNK1; higher = more nucleation; inactive = no reads after selection
observed.property: amyloid nucleation score
Numbers only.

Please report amyloid nucleation score for every entry that follows.
1. HSASQLPYYQY
2. ICYVNVL

1: 0.498; 2: -1.18

Please report amyloid nucleation score for every entry that follows.
1. YWLNNYYVVGNIS
2. GVLVKNQGLLVNAIHSMQTN
3. DGICNW
4. DCYREVSYFKFQNTKGSGSW
5. RDPYMCSLVRAGSGSKGTI
6. AFGMIVLGRSTNGGYCTDGN

1: 2.57; 2: -0.797; 3: 2.61; 4: 3.33; 5: 0.447; 6: 2.83

Need amyloid nucleation score, item EAGKLL 0.309

---

# test.summary: amyloid nucleation score (Sup35N fusion, yeast selection) (log enrichment); library NNK2; higher = more nucleation; inactive = no reads after selection
observed.property: amyloid nucleation score
Answers are plain numbers.

Answered examples (5):
substance=GPTRSYRLAASGAGEGCKTW observed_property="amyloid nucleation score" numeric_result=2.09
substance=DVLEIFVMTRGIVEVNPDSN observed_property="amyloid nucleation score" numeric_result=8.66
substance=FSLHKCNVRLGISNGT observed_property="amyloid nucleation score" numeric_result=-0.276
substance=RLPARLGSS observed_property="amyloid nucleation score" numeric_result=0.23
substance=ALSSFIGVRNLQAQGHFTQI observed_property="amyloid nucleation score" numeric_result=0.638

Please report amyloid nucleation score for every entry that follows.
1. LWRVGHVHSWICPAICHGKC
2. CYCDSWIMAS
3. GINVCFKHTMV

1: 4.37; 2: -1.69; 3: 3.28

Please report amyloid nucleation score for every entry that follows.
1. VNVCTYTWLHVINERFTFQW
2. VTFLGDIRYFRCWCL
3. GDKYCGLEPYGMGHNHMYAL
4. FNCPRSAMIVNQRHRILSGV
5. VCSFVCNLCSLCEIEFWLIA

1: 6.19; 2: 9.56; 3: 0.546; 4: -0.057; 5: 0.521

Numbers sourced from the supplement of paper PMC12042874.
